Sourced from patent US8551963B2

biological target: CYP3A4 (Homo sapiens (Human)); experiment: Inhibitory constant KI in human liver microsomes, CYP3A4; assay type: in vitro ADME; details: CYP3A4, global non-linear regression; read-out: Best Fit KI, Non-competitive
Sequence (P08684 whole entry): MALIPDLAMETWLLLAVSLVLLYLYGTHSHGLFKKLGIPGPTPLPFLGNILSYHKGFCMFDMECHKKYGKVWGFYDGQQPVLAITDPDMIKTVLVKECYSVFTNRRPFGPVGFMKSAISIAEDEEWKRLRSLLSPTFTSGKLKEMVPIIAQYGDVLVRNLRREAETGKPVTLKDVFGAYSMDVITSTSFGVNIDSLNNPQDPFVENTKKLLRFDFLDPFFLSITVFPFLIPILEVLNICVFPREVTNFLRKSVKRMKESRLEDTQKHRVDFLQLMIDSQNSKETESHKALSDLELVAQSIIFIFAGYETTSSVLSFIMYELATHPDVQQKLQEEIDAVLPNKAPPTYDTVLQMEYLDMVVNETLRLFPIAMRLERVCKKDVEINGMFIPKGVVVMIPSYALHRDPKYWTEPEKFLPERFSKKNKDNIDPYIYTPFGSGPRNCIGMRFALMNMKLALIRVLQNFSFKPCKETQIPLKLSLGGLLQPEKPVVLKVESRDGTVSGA
pKi: −log10 of the molar value.

>  <STRUCTURE STRING>
CC(C)(CO)c1cc(NC(=O)Nc2ccc(-c3cn4c(n3)sc3cc(OCCN5CCOCC5)ccc34)cc2)no1

>  <pKi>
4.31

$$$$

---

test: Aqueous and surfactant solubility; type: physicochemical; conditions: Hank's balanced salt solution (HBSS) buffer, aqueous buffer, kinetic from dmso stock; HBSS pH 7.4, 2.5% DMSO, room temperature overnight; read-out: Average Aqueous Solubility, pH 7.4
READOUT: solubility

>  <STRUCTURE STRING>
COC(=O)[C@H]1[C@H]2C[C@@H]3c4[nH]c5cc(OC)ccc5c4CCN3C[C@H]2C[C@@H](OC(=O)c2cc(OC)c(OC)c(OC)c2)[C@@H]1OC

>  <READOUT>
solubility

>  <MEAS VALUE>
< 1 µM

$$$$
>  <STRUCTURE STRING>
CC(C)(CO)c1cc(NC(=O)Nc2ccc(-c3cn4c(n3)sc3cc(OCCN5CCOCC5)ccc34)cc2)no1

>  <READOUT>
solubility

>  <MEAS VALUE>
< 1 µM

$$$$

---

test: in vitro; settings: monkey, microsomes, pH 7.4

>  <COMPOUND>
CC(C)(C)c1cc(NC(=O)Nc2ccc(-c3cn4c(n3)sc3cc(OCCN5CCOCC5)ccc34)cc2)no1 [Compound IA]

>  <microsomal CLint at 1 μM / µL/min/mg>
73

$$$$

---

biological target: FLT3 (ITD) (Homo sapiens, UniProt P36888, ITD); assay: biochemical

>  <STRUCTURE STRING>
CC(C)(CO)c1cc(NC(=O)Nc2ccc(-c3cn4c(n3)sc3cc(OCCN5CCOCC5)ccc34)cc2)no1

>  <SYSTEM TESTED>
FLT3 (ITD) (Homo sapiens, UniProt P36888, ITD)

>  <Kd, nM>
8.8

$$$$

---

target: FLT3 (D835Y) (Homo sapiens (Human), UniProt P36888, D835Y); test: biochemical
pKd: −log10 of the molar value.
READOUT: pKd

>  <COMPOUND>
CC(C)(CO)c1cc(NC(=O)Nc2ccc(-c3cn4c(n3)sc3cc(OCCN5CCOCC5)ccc34)cc2)no1 [Compound I-1]

>  <SYSTEM TESTED>
FLT3 (D835Y) (Homo sapiens (Human), UniProt P36888, D835Y)

>  <READOUT>
pKd

>  <MEAS VALUE>
8.26

$$$$

---

experiment: Pharmacokinetic study in rats, intravenous and oral; type: in vivo; details: male, Sprague-Dawley, plasma; rat, intravenous, 1 mg/kg

>  <STRUCTURE STRING>
CC(C)(CO)c1cc(NC(=O)Nc2ccc(-c3cn4c(n3)sc3cc(OCCN5CCOCC5)ccc34)cc2)no1

>  <Vd, L/kg>
1.34

$$$$

---

biological target: CYP3A4 (Homo sapiens (Human))
pIC50: −log10 of the molar value.
READOUT: pIC50

>  <STRUCTURE STRING>
CC(C)(CO)c1cc(NC(=O)Nc2ccc(-c3cn4c(n3)sc3cc(OCCN5CCOCC5)ccc34)cc2)no1

>  <MEAS VALUE>
< 4.40

$$$$

---

test: Microsomal stability and metabolic turnover, pooled human liver microsomes; conditions: both, pH 7.4
READOUT: half-life at 1 μM (min)

>  <STRUCTURE STRING>
C[C@]12CC[C@H]3[C@@H](CCC4=CC(=O)CC[C@@]43C)[C@@H]1CC[C@@H]2O

>  <MEAS VALUE>
11

$$$$

---

assay: Pharmacokinetic study in rats, intravenous and oral; type: in vivo; conditions: male, Sprague-Dawley, plasma; rat, oral, 10 mg/kg
READOUT: AUC(0-inf) (µM·h)

>  <STRUCTURE STRING>
CC(C)(CO)c1cc(NC(=O)Nc2ccc(-c3cn4c(n3)sc3cc(OCCN5CCOCC5)ccc34)cc2)no1

>  <UNITS>
µM·h

>  <MEAS VALUE>
2.27

$$$$

---

assay: in vitro; conditions: both, human, microsomes, pH 7.4

>  <STRUCTURE STRING>
CC(C)(C)c1cc(NC(=O)Nc2ccc(-c3cn4c(n3)sc3cc(OCCN5CCOCC5)ccc34)cc2)no1

>  <half-life at 1 μM>
> 1 h

$$$$

---

biological target: CYP2C8 (Homo sapiens (Human), UniProt P10632); assay: Inhibitory constant KI in human liver microsomes, CYP2C8; assay type: in vitro ADME; details: CYP2C8, global non-linear regression; read-out: Best Fit KI′, Uncompetitive
Sequence (P10632 whole entry): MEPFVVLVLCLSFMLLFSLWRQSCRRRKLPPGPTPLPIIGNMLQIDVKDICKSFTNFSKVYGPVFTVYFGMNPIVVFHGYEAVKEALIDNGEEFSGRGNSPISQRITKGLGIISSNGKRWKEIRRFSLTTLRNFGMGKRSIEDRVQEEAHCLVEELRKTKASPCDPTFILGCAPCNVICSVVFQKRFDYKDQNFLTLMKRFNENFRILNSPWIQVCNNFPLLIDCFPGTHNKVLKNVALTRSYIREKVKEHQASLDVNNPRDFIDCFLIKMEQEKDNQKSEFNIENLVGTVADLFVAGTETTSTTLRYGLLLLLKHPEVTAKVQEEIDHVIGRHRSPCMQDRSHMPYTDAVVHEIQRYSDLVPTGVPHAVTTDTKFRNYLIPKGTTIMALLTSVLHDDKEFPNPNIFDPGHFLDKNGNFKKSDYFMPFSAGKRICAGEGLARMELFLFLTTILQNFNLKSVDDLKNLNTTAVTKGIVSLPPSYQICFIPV
pKi: −log10 of the molar value.
READOUT: pKi

>  <STRUCTURE STRING>
CC(C)(CO)c1cc(NC(=O)Nc2ccc(-c3cn4c(n3)sc3cc(OCCN5CCOCC5)ccc34)cc2)no1

>  <READOUT>
pKi

>  <MEAS VALUE>
4.42

$$$$

---

test system: P-glycoprotein (MDR1); experiment: in vitro; details: dog, MDCK-MDR1, pH 7.4, PeAP→BL

>  <MOLECULE>
CC(C)NCC(O)COc1cccc2[nH]ccc12 (stereo not shown) [Pindolol]

>  <UNITS>
×10⁻⁶ cm/s

>  <Papp A→B at 10 μM>
31.7

$$$$

---

system: MV4;11 cells; experiment: MV4;11 cellular proliferation assay (Cell Titer Blue); type: cell-based; conditions: Homo sapiens, MV4-11, 72 h, read-out: EC50 (50% inhibition of cellular proliferation)
In this section, each of the compounds is paired with its reported EC50.
READOUT: EC50

>  <STRUCTURE STRING>
CC(C)(CO)c1cc(NC(=O)Nc2ccc(-c3cn4c(n3)sc3cc(OCCN5CCOCC5)ccc34)cc2)no1

>  <READOUT>
EC50

>  <MEAS VALUE>
0.3 nM

$$$$
>  <STRUCTURE STRING>
CC(C)(C)c1cc(NC(=O)Nc2ccc(-c3cn4c(n3)sc3cc(OCCN5CCOCC5)ccc34)cc2)no1

>  <READOUT>
EC50

>  <MEAS VALUE>
0.6 nM

$$$$

---

experiment: Microsomal stability and metabolic turnover, pooled dog liver microsomes; details: pH 7.4

>  <COMPOUND>
C[C@]12CC[C@H]3[C@@H](CCC4=CC(=O)CC[C@@]43C)[C@@H]1CC[C@@H]2O [Testosterone]

>  <half-life at 1 μM>
1 h

$$$$

---

test: In vivo clearance, monkey; settings: in vivo, read-out: In Vivo t1/2 (converted)

>  <STRUCTURE STRING>
CC(C)(C)c1cc(NC(=O)Nc2ccc(-c3cn4c(n3)sc3cc(OCCN5CCOCC5)ccc34)cc2)no1

>  <half-life>
2.7 h

$$$$

---

assay: in vitro; conditions: both, human, microsomes, pH 7.4

>  <STRUCTURE STRING>
CC(C)(C)c1cc(NC(=O)Nc2ccc(-c3cn4c(n3)sc3cc(OCCN5CCOCC5)ccc34)cc2)no1

>  <microsomal CLint at 1 μM>
< 23 µL/min/mg

$$$$

---

target: FLT3 (N841I) (Homo sapiens (Human), UniProt P36888, N841I); assay: biochemical
pKd: −log10 of the molar value.

>  <STRUCTURE STRING>
CC(C)(CO)c1cc(NC(=O)Nc2ccc(-c3cn4c(n3)sc3cc(OCCN5CCOCC5)ccc34)cc2)no1

>  <pKd>
9.11

$$$$

---

molecular target: P-Glycoprotein (Homo sapiens (Human), UniProt P08183); assay: Digoxin bidirectional MDR1-MDCK permeability, Compound I-1 as an inhibitor; details: dog, MDCK-MDR1, pH 7.4, Digoxin PeAP→BL, preliminary experiment, Digoxin 1 μM alone, Std
Sequence (P08183 whole entry): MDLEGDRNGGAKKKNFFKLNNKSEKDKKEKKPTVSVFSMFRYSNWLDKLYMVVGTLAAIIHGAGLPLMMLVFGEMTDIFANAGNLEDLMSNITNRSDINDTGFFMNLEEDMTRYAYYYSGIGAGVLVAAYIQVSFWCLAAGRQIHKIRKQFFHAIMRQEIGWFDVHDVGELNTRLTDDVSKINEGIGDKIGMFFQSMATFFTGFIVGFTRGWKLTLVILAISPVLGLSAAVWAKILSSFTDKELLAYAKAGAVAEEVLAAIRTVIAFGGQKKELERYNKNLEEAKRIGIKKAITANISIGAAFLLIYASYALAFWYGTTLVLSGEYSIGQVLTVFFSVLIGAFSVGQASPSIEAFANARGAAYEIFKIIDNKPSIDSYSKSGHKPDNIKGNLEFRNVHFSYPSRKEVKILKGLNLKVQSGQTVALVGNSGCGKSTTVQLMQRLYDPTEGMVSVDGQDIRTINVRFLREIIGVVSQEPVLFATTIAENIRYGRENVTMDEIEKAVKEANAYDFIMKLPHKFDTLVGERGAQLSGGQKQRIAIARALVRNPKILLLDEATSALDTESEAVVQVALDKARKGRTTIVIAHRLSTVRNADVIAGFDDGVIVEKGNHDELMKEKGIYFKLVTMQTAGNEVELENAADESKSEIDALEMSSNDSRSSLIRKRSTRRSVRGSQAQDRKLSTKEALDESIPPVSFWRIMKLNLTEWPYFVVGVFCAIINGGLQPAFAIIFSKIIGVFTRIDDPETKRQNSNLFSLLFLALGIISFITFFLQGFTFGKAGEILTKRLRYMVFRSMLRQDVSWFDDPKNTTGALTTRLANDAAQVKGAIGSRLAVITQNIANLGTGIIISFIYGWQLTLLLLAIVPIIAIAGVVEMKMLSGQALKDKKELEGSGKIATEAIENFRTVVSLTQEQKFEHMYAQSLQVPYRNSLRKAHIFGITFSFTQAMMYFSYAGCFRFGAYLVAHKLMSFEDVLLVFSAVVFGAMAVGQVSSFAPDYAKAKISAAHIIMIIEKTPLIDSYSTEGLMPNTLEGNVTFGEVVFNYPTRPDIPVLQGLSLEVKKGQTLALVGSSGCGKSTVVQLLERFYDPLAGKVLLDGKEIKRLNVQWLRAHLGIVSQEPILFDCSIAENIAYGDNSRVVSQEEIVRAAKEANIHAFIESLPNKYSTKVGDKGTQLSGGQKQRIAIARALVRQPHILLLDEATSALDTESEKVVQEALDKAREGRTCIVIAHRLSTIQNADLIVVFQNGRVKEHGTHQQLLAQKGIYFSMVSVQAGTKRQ
READOUT: Papp A→B at 1 μM (×10⁻⁶ cm/s)

>  <COMPOUND>
C[C@H]1O[C@@H](O[C@H]2[C@@H](O)C[C@H](O[C@H]3[C@@H](O)C[C@H](O[C@H]4CC[C@@]5(C)[C@H](CC[C@@H]6[C@@H]5C[C@@H](O)[C@]5(C)[C@@H](C7=CC(=O)OC7)CC[C@]65O)C4)O[C@@H]3C)O[C@@H]2C)C[C@H](O)[C@@H]1O [Digoxin, reference compound]

>  <UNITS>
×10⁻⁶ cm/s

>  <MEAS VALUE>
0.24

$$$$
